Test system: K-562 leukemia
Test: NCI-60 one-dose screen, 48 h
Conditions: 10 µM
About 83,000 compounds went through this panel and 20% of them were active in at least one assay; those are over-represented in the sample as a whole. The source made the active and inactive calls. Rule for the calls: active = growth percent below 10; inactive = the rest.
Possible outcomes: active, inactive

[
  {
    "compound": "CCCCC1(O)CCCCC1",
    "category": "inactive"
  },
  {
    "compound": "O=C(Nc1ccc(OS(=O)(=O)c2ccccc2)cc1)C1CCCCC1",
    "category": "inactive"
  },
  {
    "compound": "CC(C)(C)c1nn(-c2ccccc2)c2c1CC1(CN2Cc2ccc(Cl)cc2)C(=O)c2ccccc2C1=O",
    "category": "inactive"
  },
  {
    "compound": "CNC(=O)c1cn2c3c(c(N4CCN(C)CC4)c(F)cc3c1=O)OC[C@@H]2C",
    "category": "inactive"
  },
  {
    "compound": "CSc1nc2c(c(=O)n1C)CN(Cc1ccccc1)C(=O)CN2",
    "category": "inactive"
  },
  {
    "compound": "O=C(CCCCC(=O)Oc1c(Cl)cc(Cl)cc1[N+](=O)[O-])Oc1c(Cl)cc(Cl)cc1[N+](=O)[O-]",
    "category": "inactive"
  },
  {
    "compound": "CS(=O)(=O)c1nccc(-c2c(-c3cccc(O)c3)nc3sccn23)n1",
    "category": "inactive"
  },
  {
    "compound": "S=c1cnc2ccccc2[nH]1",
    "category": "inactive"
  },
  {
    "compound": "C=CCn1c(SCC(=O)Nc2ccc(C(=O)/C=C/c3ccc(OC)cc3)cc2)nnc1-c1ccc(OC)c(OC)c1",
    "category": "inactive"
  },
  {
    "compound": "COc1ccc(C2CC(c3cccs3)=NN2c2ccc(S(N)(=O)=O)cc2)cc1 (stereo unspecified)",
    "category": "inactive"
  },
  {
    "compound": "CN(C)c1ccc(/C=N/NC(=O)c2ccccc2Nc2cccc(C(F)(F)F)c2)cc1",
    "category": "inactive"
  },
  {
    "compound": "COc1cc(C2C(C#N)=C(N)Oc3cc(O)ccc32)cc(OC)c1OC (stereo unspecified)",
    "category": "active"
  },
  {
    "compound": "Clc1ccc(Cc2ccncc2)cc1",
    "category": "inactive"
  },
  {
    "compound": "Cc1noc(C)c1CSc1ccccc1C(=O)N1CCN(c2cccc(C(F)(F)F)c2)CC1",
    "category": "inactive"
  },
  {
    "compound": "Cc1nn(-c2ccccc2)c2nc(Cl)c(C=O)c(-c3ccccc3)c12",
    "category": "inactive"
  },
  {
    "compound": "C=CCn1c(SCC(=O)Nc2ccc(C(=O)/C=C/c3ccc(Cl)cc3)cc2)nnc1-c1cc(-c2ccccc2)nc2ccccc12",
    "category": "inactive"
  },
  {
    "compound": "CC(C)(C)OC(=O)N1CCc2c(sc3ncnc(N/N=C/c4cccc5ccccc45)c23)C1",
    "category": "active"
  },
  {
    "compound": "O=C(O)c1cc([N+](=O)[O-])ccc1Oc1ccccc1",
    "category": "inactive"
  },
  {
    "compound": "CN(C)CCOc1cccc(NC2=C(Cl)C(=O)C(Nc3cccc(OCCN(C)C)c3)=C(Cl)C2=O)c1",
    "category": "active"
  },
  {
    "compound": "CCc1ccc(-c2ccc(-n3nc(C)c4c(N)nc(Cc5ccccc5)nc43)cc2)cc1",
    "category": "active"
  },
  {
    "compound": "COc1ccc(-c2cc(-c3ccc(Cl)cc3)nc(SCCCC(=O)NO)n2)cc1OC",
    "category": "active"
  }
]
